Where these numbers come from: ChEMBL document CHEMBL1201862

Tested on: NCI-H226
Assay: NCI tumour cell line growth inhibition, 48 h
The source made the active and inactive calls. Cut-off read from the data, not from the text of the source: active = GI50 up to about 1.1 µM and inactive = higher.
valueKind: GI50

# GI50 (compound: OCCOCCN1CCN(c2nc(N3CCCC3)c3nc(Cl)c(NCc4ccccc4)nc3n2)CC1 ) is 20.8 µM (inactive)

# GI50 (compound: CC(C)CCCC(C)[C@H]1CCC2[C@@H]3CCC4Nc5c(cnn5-c5ccccc5)C[C@]4(C)C3CC[C@@]21C (stereo not given in full) ) is 17.9 µM (inactive)

# GI50 (compound: O=C1c2ccccc2C(=O)c2cc(/N=N/c3c(O)ccc4ccccc34)ccc21 ) is > 100 µM (inactive)

# GI50 (compound: COc1cccc(-c2[nH]c3cc4c(cc3c(=O)c2C(=O)O)OCO4)c1 ) is 43.5 µM (inactive)

# GI50 (compound: CN(C)C(=S)N=C(Nc1ccccc1)Nc1ccccc1 ) is > 100 µM (inactive)
